Target: Dihydrofolate reductase (Mycobacterium tuberculosis)
Sequence (P9WNX1 whole entry): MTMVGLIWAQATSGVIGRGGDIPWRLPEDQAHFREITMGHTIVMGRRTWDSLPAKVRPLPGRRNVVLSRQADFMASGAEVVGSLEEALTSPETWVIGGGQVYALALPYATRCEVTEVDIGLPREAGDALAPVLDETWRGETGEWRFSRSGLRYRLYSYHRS
Test: Inhibition of Mycobacterium tuberculosis H37Rv DHFR expressed in Escherichia coli BL21(DE3) assessed as reduction in consumption of NADPH using DHF as substrate preincubated for 1 min followed by DHF addition and measured for 2 mins by spectrophotometric method
measurement_kind: pIC50
Bear in mind: pIC50 is minus log10 of a mol/L concentration; give just that figure.

Challenge: Param readout= pIC50; system= Dihydrofolate reductase (Mycobacterium tuberculosis); entry= CCOC(=O)CC[C@H](NC(=O)c1ccc(N(C)Cc2cnc3nc(N)nc(N)c3n2)cc1)C(=O)OCC ; returns value.
Response given: 7.52

Note: attention shifts to another entry.
Challenge: Param readout= pIC50; system= Dihydrofolate reductase (Mycobacterium tuberculosis); entry= COC(=O)CC[C@H](NC(=O)c1ccc(N(C)Cc2cnc3nc(N)nc(N)c3n2)cc1)C(=O)OC ; returns value.
Response given: 7.30
